Value source: patent US20230134571A1

# TESTED_SYSTEM: HIV Env of isolate T235-47 (clade AG) (HIV)
# ASSAY_DETAILS: cell-based or functional assay
Each record here notes measured IC50 (µg/ml) with constrains.

BINDER	IC50 (µg/ml) with constrains, µg/mL
ePGDM5 (antibody, V domains shown) VH: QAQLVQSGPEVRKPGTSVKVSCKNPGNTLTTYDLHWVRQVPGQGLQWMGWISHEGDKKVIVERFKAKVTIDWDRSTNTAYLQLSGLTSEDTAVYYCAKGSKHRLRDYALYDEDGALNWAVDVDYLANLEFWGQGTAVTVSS VL: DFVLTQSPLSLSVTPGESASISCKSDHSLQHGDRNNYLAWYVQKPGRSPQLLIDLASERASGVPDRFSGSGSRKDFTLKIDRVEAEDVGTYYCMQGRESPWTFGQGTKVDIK	0.005
ePGDM9 (antibody, V domains shown) VH: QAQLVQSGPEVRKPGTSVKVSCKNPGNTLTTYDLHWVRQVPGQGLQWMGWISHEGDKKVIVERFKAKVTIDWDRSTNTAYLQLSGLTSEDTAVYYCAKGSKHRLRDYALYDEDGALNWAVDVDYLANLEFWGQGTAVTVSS VL: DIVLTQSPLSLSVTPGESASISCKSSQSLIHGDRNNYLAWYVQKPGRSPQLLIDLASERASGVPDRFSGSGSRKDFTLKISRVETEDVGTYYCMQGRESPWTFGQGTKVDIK	0.004
ePGDM13 (antibody, V domains shown) VH: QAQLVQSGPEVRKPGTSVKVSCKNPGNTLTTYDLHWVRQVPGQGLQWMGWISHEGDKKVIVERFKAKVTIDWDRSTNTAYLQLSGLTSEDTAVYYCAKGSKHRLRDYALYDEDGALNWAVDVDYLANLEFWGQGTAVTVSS VL: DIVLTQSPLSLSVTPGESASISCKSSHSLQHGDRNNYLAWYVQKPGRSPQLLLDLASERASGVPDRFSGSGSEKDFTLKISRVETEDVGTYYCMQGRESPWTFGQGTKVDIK	0.005
PGDM1400 (antibody, V domains shown) VH: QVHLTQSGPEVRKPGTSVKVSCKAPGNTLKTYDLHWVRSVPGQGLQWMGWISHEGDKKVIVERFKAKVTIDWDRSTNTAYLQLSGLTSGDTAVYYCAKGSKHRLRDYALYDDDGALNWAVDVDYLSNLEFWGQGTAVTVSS VL: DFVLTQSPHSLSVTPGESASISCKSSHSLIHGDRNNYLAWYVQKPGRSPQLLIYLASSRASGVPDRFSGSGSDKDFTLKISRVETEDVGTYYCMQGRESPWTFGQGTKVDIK	0.011
